Assay: Cytotoxicity against mouse BV2 cells assessed as cell viability at 80 uM
Format: cell-based, BV-2
Settings: read-out: Activity
observed property: viability at 80 µM

Entry `C[C@H]1CC[C@@]2(OC1)O[C@@H]1C[C@@H]3[C@H]4CC=C5C[C@H](O[C@H]6O[C@@H](CO)[C@H](O)[C@@H](O[C@H]7O[C@H](C)[C@@H](O[C@@H]8O[C@H](CO)[C@@H](O)[C@H](O)[C@H]8O)[C@H](O)[C@@H]7O)[C@@H]6O[C@H]6O[C@H](C)[C@@H](O)[C@H](O)[C@@H]6O)CC[C@@]5(C)[C@@H]4CC[C@@]3(C)[C@@H]1[C@H]2C` ; viability at 80 µM = < 50%

====

Tested on: RAW264.7
Assay: Inhibition of LPS-induced NO production in mouse RAW264.7 cells by Griess assay
Format: functional, cell-based
observed property: IC50

Entry C[C@@H]1COC2(C[C@@H]1O)O[C@H]1C[C@H]3[C@@H]4CC=C5C[C@@H](O[C@@H]6O[C@H](CO)[C@@H](O)[C@H](O[C@@H]7O[C@@H](C)[C@H](O)[C@@H](O)[C@H]7O)[C@H]6O[C@@H]6O[C@@H](C)[C@H](O)[C@@H](O)[C@H]6O)CC[C@]5(C)[C@H]4CC[C@]3(C)[C@H]1[C@@H]2C (single isomer, unassigned) ; IC50 = > 80 µM

====

Experiment: Cytotoxicity against mouse RAW264.7 cells assessed as cell viability at 80 uM
Type: cell-based
Details: read-out: Activity
observed property: viability at 80 µM

Entry `C[C@H]1CC[C@@]2(OC1)O[C@@H]1C[C@@H]3[C@H]4CC=C5C[C@H](O[C@H]6O[C@@H](CO)[C@H](O)[C@@H](O[C@H]7O[C@H](C)[C@@H](O[C@@H]8O[C@H](CO)[C@@H](O)[C@H](O)[C@H]8O)[C@H](O)[C@@H]7O)[C@@H]6O[C@H]6O[C@H](C)[C@@H](O)[C@H](O)[C@@H]6O)CC[C@@]5(C)[C@@H]4CC[C@@]3(C)[C@@H]1[C@H]2C` ; viability at 80 µM = < 50%

====

Assignment: determine reported IC50 for the given molecules.
Test system: RAW264.7
Assay: Inhibition of LPS-induced NO production in mouse RAW264.7 cells by Griess assay
Assay type: functional, cell-based
Output spec: scalar in µM, unitless text.

Log: RAW264.7, molecule C[C@@H]1CO[C@@]2(O[C@@H]3C[C@@H]4[C@H]5CC=C6C[C@H](O[C@@H]7O[C@H](CO)[C@@H](O)[C@H](O[C@@H]8O[C@@H](C)[C@H](O[C@@H]9O[C@H](CO)[C@@H](O)[C@H](O)[C@H]9O)[C@@H](O)[C@H]8O)[C@H]7O[C@@H]7O[C@@H](C)[C@H](O)[C@@H](O)[C@H]7O)CC[C@@]6(C)[C@@H]5CC[C@@]4(C)[C@@H]3[C@H]2C)[C@H](O)C1 (stereo in doubt) , IC50 = 37

Log: RAW264.7, molecule `O=C(/C=C/c1ccc(O)c(O)c1)c1ccc(O)cc1O` , IC50 = 5.3

Log: RAW264.7, molecule C[C@@H]1CO[C@]2(O[C@H]3C[C@@H]4[C@@H]5CC=C6C[C@@H](O[C@@H]7O[C@H](CO)[C@@H](O)[C@H](O[C@@H]8O[C@@H](C)[C@H](O)[C@@H](O)[C@H]8O)[C@H]7O[C@@H]7O[C@@H](C)[C@H](O)[C@@H](O)[C@H]7O)CC[C@]6(C)[C@H]5CC[C@]4(C)[C@H]3[C@@H]2C)[C@@H](O)[C@@H]1O (stereo in doubt) , IC50 = 60.7

Log: RAW264.7, molecule C[C@@H]1CO[C@@]2(O[C@@H]3C[C@@H]4[C@H]5CC=C6C[C@H](O[C@@H]7O[C@H](CO)[C@@H](O)[C@H](O[C@@H]8O[C@@H](C)[C@H](O[C@@H]9O[C@H](CO)[C@@H](O)[C@H](O)[C@H]9O)[C@@H](O)[C@H]8O)[C@H]7O[C@@H]7O[C@@H](C)[C@H](O)[C@@H](O)[C@H]7O)CC[C@@]6(C)[C@@H]5CC[C@@]4(C)[C@@H]3[C@H]2C)[C@H](O)[C@@H]1O (stereo in doubt) , IC50 = 58.2
